Test system: MDA-MB-231
Test: Growth inhibition of human MDA-MB-231 cells incubated for 48 hrs by sulforhodamine B assay
Type: functional
Settings: MDA-MB-231, 48 h
Would you kindly list TGI for each of these compounds?
API: value field is a number in µM; no unit string.

Just so you know, measured TGI for C=C1CC[C@@H]2[C@](C)(COC(C)=O)[C@H](OC(C)=O)CC[C@@]2(C)[C@H]1CC(Nc1ccc(S(=O)(=O)Nc2nccs2)cc1)C1=CCOC1=O (stereo not given in full) came out at 8.25

Lookup result for C=C1CC[C@@H]2[C@](C)(COC(C)=O)[C@H](OC(C)=O)CC[C@@]2(C)[C@H]1CC(Nc1ccc(S(=O)(=O)Nc2ncccn2)cc1)C1=CCOC1=O (stereo not given in full) ; measured TGI: 3.93

So for C=C1CC[C@@H]2[C@](C)(COC(C)=O)[C@H](OC(C)=O)CC[C@@]2(C)[C@H]1CC(Nc1ccc(S(=O)(=O)Nc2ccc(Cl)nn2)cc1)C1=CCOC1=O (stereo not given in full) , the logged TGI turned out to be 3.96

The compound listed as C=C1CC[C@@H]2[C@](C)(COC(C)=O)[C@H](OC(C)=O)CC[C@@]2(C)[C@H]1CC(Nc1ccc(S(=O)(=O)Nc2nccc(C)n2)cc1)C1=CCOC1=O (stereo not given in full) shows TGI equal to 10.2

TGI in this record for C=C1CC[C@@H]2[C@](C)(COC(C)=O)[C@H](OC(C)=O)CC[C@@]2(C)[C@H]1CC(Nc1ccc(S(=O)(=O)Nc2cc(C)on2)cc1)C1=CCOC1=O (stereo not given in full) : 5.11

Hey, just so you know, these numbers are from ChEMBL document CHEMBL4033712.
